- TARGET OR TEST SYSTEM: Large T antigen (Simian virus 40)
- EXPERIMENTAL PROTOCOL: SV40 large T antigen inhibitors, biochemical (AID 1903)
- STATED CONDITIONS: SV40 large T antigen ATPase/helicase inhibition assay; at 20 µM; stronger effect = higher value
The campaign covered roughly 310,000 compounds. About 1,200 (0.39%) were called active. Only a sample is shown. Potency and affinity values are given separately.
Can you tell me inhibition for the items I'm about to list?
Answers are plain numbers, in %.

Ask: Entry `Oc1ccc(Nc2nnc(-c3ccc(O)cc3)c3ccccc23)cc1` , system Large T antigen (Simian virus 40): what inhibition was measured?
Reply: 20.3

Ask: Entry `CCOC(=O)C1(CCc2ccccc2)CCN(C(=O)c2cccc(C)n2)CC1` , system Large T antigen (Simian virus 40): what inhibition was measured?
Reply: 4.43

Ask: Entry `COc1cc(/C=C(\C#N)C(=O)c2c[nH]c3ccccc23)cc(OC)c1O` , system Large T antigen (Simian virus 40): what inhibition was measured?
Reply: 24.5

For each listed entry, give its inhibition.
1. COc1ccccc1C(=O)N/C(=C/c1cccc([N+](=O)[O-])c1)C(=O)Nc1cccc(C(=O)O)c1
2. Cc1nn(CC(=O)N2CCOCC2)c(=O)c2nn(-c3ccccc3)c(C)c12

Reply:
[-0.39, 1.18]

###

- TARGET OR TEST SYSTEM: Large T antigen (Simian virus 40)
- EXPERIMENTAL PROTOCOL: SV40 large T antigen inhibitors, biochemical (AID 1903)
- STATED CONDITIONS: SV40 large T antigen ATPase/helicase inhibition assay; at 20 µM; stronger effect = higher value
Out of some 310,000 compounds screened, about 1,200 (0.39%) were called active. A selection follows. Measured potencies and affinities stand elsewhere.
// label = True if inhibition is not less than 5%, otherwise False

Worked examples, 3 compounds total:
Ask: Decide: is the reported value of inhibition for `COC(=O)c1ccc(CN2C(=O)c3ccccc3C2=O)o1` equal to or greater than 5%?
Reply: True

Ask: Decide: is the reported value of inhibition for `O=c1c(O)c(-c2ccc(O)cc2)oc2cc(O)cc(O)c12` equal to or greater than 5%?
Reply: False

Ask: Decide: is the reported value of inhibition for `O=c1c(O)c(-c2cc(O)c(O)c(O)c2)oc2cc(O)cc(O)c12` equal to or greater than 5%?
Reply: True

Others:
Ask: Decide: is the reported value of inhibition for COc1cccc(NC(=O)C2Cc3ccccc3CN2C(=O)c2ccco2)c1 (stereo unspecified) equal to or greater than 5%?
Reply: True

Ask: Decide: is the reported value of inhibition for CC(C)(C)n1nnnc1C(c1cccnc1)N1CCN(c2ccccc2)CC1 (stereo unspecified) equal to or greater than 5%?
Reply: False

###

- TARGET OR TEST SYSTEM: Large T antigen (Simian virus 40) (UniProt P03070)
- Sequence (P03070 whole entry, looked up): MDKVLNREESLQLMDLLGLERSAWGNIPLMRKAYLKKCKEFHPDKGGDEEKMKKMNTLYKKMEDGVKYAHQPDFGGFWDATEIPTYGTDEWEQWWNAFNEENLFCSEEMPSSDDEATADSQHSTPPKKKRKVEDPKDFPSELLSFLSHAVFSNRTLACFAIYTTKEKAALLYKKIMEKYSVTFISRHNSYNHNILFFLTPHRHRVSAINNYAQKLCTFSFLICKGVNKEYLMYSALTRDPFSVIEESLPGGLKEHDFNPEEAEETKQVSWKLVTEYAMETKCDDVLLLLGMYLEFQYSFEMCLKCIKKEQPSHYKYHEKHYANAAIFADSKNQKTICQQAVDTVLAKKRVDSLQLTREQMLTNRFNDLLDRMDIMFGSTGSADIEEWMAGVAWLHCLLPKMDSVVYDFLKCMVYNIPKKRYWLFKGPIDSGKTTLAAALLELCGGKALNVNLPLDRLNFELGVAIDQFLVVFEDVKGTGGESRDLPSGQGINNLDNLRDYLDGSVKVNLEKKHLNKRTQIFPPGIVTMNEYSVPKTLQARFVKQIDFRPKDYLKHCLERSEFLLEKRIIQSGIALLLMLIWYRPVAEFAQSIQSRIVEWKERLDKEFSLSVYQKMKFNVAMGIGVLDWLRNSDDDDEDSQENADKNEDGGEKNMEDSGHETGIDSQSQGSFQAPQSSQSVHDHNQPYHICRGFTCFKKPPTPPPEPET
- EXPERIMENTAL PROTOCOL: SV40 large T antigen inhibitors, biochemical (AID 1903)
- STATED CONDITIONS: SV40 large T antigen ATPase/helicase inhibition assay; at 20 µM; stronger effect = higher value
Screen size: about 310,000 compounds; about 1,200 (0.39%) were called active. These entries were drawn from the full list. Measured potencies and affinities stand elsewhere.
QUANTITY: inhibition (%)
One number for each entry, in %.

Ask: Entry `CCOc1c(C)cnc2c1c(=O)n(Cc1c(F)cccc1Cl)c(=O)n2C` , system Large T antigen (Simian virus 40) (UniProt P03070): what inhibition was measured?
Reply: 18.6

Ask: Entry `O=c1nc2n(c3cccc(Cl)c13)CCCCC2` , system Large T antigen (Simian virus 40) (UniProt P03070): what inhibition was measured?
Reply: 5.2

Ask: Entry `CCCc1cc2c(=O)n(NC(=O)c3nn(C)cc3[N+](=O)[O-])c(C)nc2s1` , system Large T antigen (Simian virus 40) (UniProt P03070): what inhibition was measured?
Reply: 15.2

For each listed entry, give its inhibition.
1. COc1cc(/C=C2\NC(=S)N(C)C2=O)ccc1OCc1ccccc1F
2. O=C(CN1CCCN(Cc2ccc(F)cc2)S1(=O)=O)NC1CCCC1
3. COC(=O)c1ccccc1NC(=O)CSc1n[nH]c(C)n1

Reply:
[15.8, 1.85, 0.8]

For each listed entry, give its inhibition.
1. COC(=O)C1=C(C)N(Cc2ccco2)C(=O)C1
2. C/C(=N\NC(=O)c1nnn(-c2nonc2N)c1-c1cccs1)c1cccnc1
3. O=C1C2C(C(=O)N1Cc1ccco1)C1C=CC2C12CC2 (stereo not drawn)

Reply:
1: 23.9; 2: -7.39; 3: -1.46
